Tested on: UO-31

molecule	measured_target	GI50 (nM)
CC1=C2[C@@H](CC1)[C@]1(C)O[C@@](C3CC3)(C[C@H]1OC(=O)CO)[C@H]2OC(=O)C=Cc1ccccc1	UO-31	330
CC1=C2[C@@H](CC1)[C@]1(C)O[C@@](C(C)C)(C[C@H]1OC(=O)CO)[C@H]2OC(=O)C1CC1c1ccccc1 (stereo partly drawn)	UO-31	11000
CC1=C2[C@@H](CC1)[C@]1(C)O[C@@](C3CCCCC3)(C[C@H]1OC(=O)CO)[C@H]2OC(=O)C=Cc1ccccc1	UO-31	460

###

Target or system UO-31; recorded quantity GI50.

smiles_repr	GI50 (nM)
CC1=C2[C@@H](CC1)[C@]1(C)O[C@@](c3ccccc3)(C[C@H]1OC(=O)CO)[C@H]2OC(=O)C=Cc1ccccc1	550
CC(=O)O[C@@H]1C[C@]2(C(C)C)O[C@@]1(C)[C@@H]1CCC(C)=C1[C@@H]2OC(=O)C=Cc1ccccc1	20000
CC1=C2[C@@H](CC1)[C@]1(C)O[C@@](C(C)C)(C[C@H]1OC(=O)[C@H](C)O)[C@H]2OC(=O)C=Cc1ccccc1	710
CC1=C2[C@@H](CC1)[C@]1(C)O[C@@](C(C)C)(C[C@H]1OC(=O)CO)[C@H]2OC(=O)/C=C/c1ccccc1	40

###

System: OVCAR-3
property_measured: GI50 (µM)

compound	measured_target	property_measured	units_label	test_value
CC1=C2[C@@H](CC1)[C@]1(C)O[C@@](C3CC3)(C[C@H]1OC(=O)CO)[C@H]2OC(=O)C=Cc1ccccc1 [Compound (Is)]	OVCAR-3	GI50	µM	16
CC1=C2[C@@H](CC1)[C@]1(C)O[C@@](C(C)C)(C[C@H]1OC(=O)CO)[C@H]2OC(=O)C1CC1c1ccccc1 (stereo partly drawn) [Compound (Ij)]	OVCAR-3	GI50	µM	14
CC(=O)O[C@@H]1C[C@]2(C(C)C)O[C@@]1(C)[C@@H]1CCC(C)=C1[C@@H]2OC(=O)C=Cc1ccccc1 [(Im)]	OVCAR-3	GI50	µM	22

###

System: T-47D
Assay: NCI 60 cell assay, breast T-47D
Type: cell-based
Details: Homo sapiens, T47D, 48 h; T-47D (breast); drug exposure two days, SRB endpoint; read-out: GI-50 value

smiles_repr	units_label	GI50
CC1=C2[C@@H](CC1)[C@]1(C)O[C@@](C3CC3)(C[C@H]1OC(=O)CO)[C@H]2OC(=O)C=Cc1ccccc1	µM	14
CC1=C2[C@@H](CC1)[C@]1(C)O[C@@](C(C)C)(C[C@H]1OC(=O)CO)[C@H]2OC(=O)/C=C/c1ccccc1	µM	27
CC(=O)O[C@@H]1C[C@]2(C(C)C)O[C@@]1(C)[C@@H]1CCC(C)=C1[C@@H]2OC(=O)C=Cc1ccccc1	µM	20

###

In what follows, each item is paired with its GI50 for HS 578T.

molecule	GI50 / nM
CC1=C2[C@@H](CC1)[C@]1(C)O[C@@](C(C)C)(C[C@H]1OC(=O)CO)[C@H]2OC(=O)C1CC1c1ccccc1 (stereo partly drawn)	150
CC1=C2[C@@H](CC1)[C@]1(C)O[C@@](C(C)C)(C[C@H]1OC(=O)CO)[C@H]2OC(=O)/C=C/c1ccccc1	15
CC1=C2[C@@H](CC1)[C@]1(C)O[C@@](C3CC3)(C[C@H]1OC(=O)CO)[C@H]2OC(=O)C=Cc1ccccc1	23
